Cited source for all entries: ChEMBL document CHEMBL2424608

Test system: HT-22
assayMethodText: Neuroprotective activity against mouse HT22 cells assessed as inhibition of glutamate-induced cell injury pretreated at 10 uM for 30 mins measured after 24 hrs by MTT assay
Format: functional
reportedMetric: inhibition at 10 µM (%)
Give the value, in units of %, as a plain number.

Sample records with inhibition at 10 µM:
Cc1ccc(S(=O)(=O)n2c3ccccc3c3ccccc32)cc1 ... 10
Cc1ccc(-n2c3ccccc3c3ccccc32)cc1 ... 0
c1ccc(-n2c3ccccc3c3ccccc32)cc1 ... 7
Fc1cccc(-n2c3ccccc3c3ccccc32)c1 ... 0
Cc1ccc(S(=O)(=O)n2c3ccccc3c3ccc(C#N)cc32)cc1 ... 2

// lookup inhibition at 10 µM for `COc1ccc(-n2c3ccccc3c3ccccc32)cc1`
25

# input compound: `c1ccc2c(c1)c1ccccc1n2C1CCCCC1` ; wanted: its inhibition at 10 µM
8

Fill blank: measured inhibition at 10 µM of the compound `OCCCCn1c2ccccc2c2ccccc21` is ____.
1
